Please go through the items and note down their kon.
target: cynomolgus IL-1beta (cynomolgus, UniProt P79182 117-268); assay: SPR (BIAcore); antibody captured by anti-Fc, IL-1beta injected
Hey, just the number and the unit after it is fine.

[Q] Form field: reported kon of Canakinumab (antibody, V domains shown) VH: QVQLVESGGGVVQPGRSLRLSCAASGFTFSVYGMNWVRQAPGKGLEWVAIIWYDGDNQYYADSVKGRFTISRDNSKNTLYLQMNGLRAEDTAVYYCARDLRTGPFDYWGQGTLVTVSS VL: EIVLTQSPDFQSVTPKEKVTITCRASQSIGSSLHWYQQKPDQSPKLLIKYASQSFSGVPSRFSGSGSGTDFTLTINSLEAEDAAAYYCHQSSSLPFTFGPGTKVDIKR
[A] 2.15e+06 M⁻¹ s⁻¹

[Q] Repeat with huH34-2 (antibody, V domains shown, Humanized antibody expressed in HEK cells; also called huH34-2 bivalent; humanized version of H34) VH: QVQLVQSGAEVKKPGASVKVSCKASGYTFTGYYMHWVRQAPGQGLEWIGYISSYNAFTTYNQKFRGRATFTVDTSISTAYMELSRLRSDDTAVYYCVRSDYYGTSLYWGQGTLVTVSS VL: EIVLTQSPATLSLSPGERATLSCRASSSVSYMHWSQQKPGQAPRLLIYSTSNLASGIPARFSGSGSGTDFTLTISSLEPEDFAVYYCHQWSNYYTFGQGTKLEIK
[A] 2.2e+06 M⁻¹ s⁻¹

[Q] Repeat with huH34-1 (antibody, V domains shown, VH = 01 and VL = 16 read by analogy with huH34-2 (VH 06, VL 16); Humanized) VH: QVQLVQSGAEVKKPGASVKVSCKASGYTFTGYYMHWVRQAPGQGLEWMGYISSYSGFTTYAQKFQGRVTMTRDTSISTAYMELSRLRSDDTAVYYCARSDYYGTSLYWGQGTLVTVSS VL: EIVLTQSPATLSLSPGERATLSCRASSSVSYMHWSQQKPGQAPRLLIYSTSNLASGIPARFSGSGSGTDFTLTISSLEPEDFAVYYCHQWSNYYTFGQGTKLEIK
[A] 1.61e+06 M⁻¹ s⁻¹

[Q] Repeat with H34 + C52aS mutations (antibody, V domains shown) VH: EVQLQQSGPELVKTGASVKISCKASGYSFTGYYMHWVKQSHGKSLEWIGYISSYNAFTTYNQRFRGKATFTVDTSSSTAYMQFNSLTSEDSAVYYCVRSDYYGTSLYWGQGTTLTVSS VL: QIVLTQSPAIMSASLGEEITLTCSASSSVSYMHWSQQKSGSSPKLLIYSTSNLASGVPSRFSGSGSGTFYSLTISSVEAEDAADYYCHQWSNYYTFGGGTKLEIK
[A] 1.43e+06 M⁻¹ s⁻¹
